Target: AKR1C1 (Homo sapiens, UniProt Q04828)
Sequence (Q04828 whole entry, the tested form may be a part): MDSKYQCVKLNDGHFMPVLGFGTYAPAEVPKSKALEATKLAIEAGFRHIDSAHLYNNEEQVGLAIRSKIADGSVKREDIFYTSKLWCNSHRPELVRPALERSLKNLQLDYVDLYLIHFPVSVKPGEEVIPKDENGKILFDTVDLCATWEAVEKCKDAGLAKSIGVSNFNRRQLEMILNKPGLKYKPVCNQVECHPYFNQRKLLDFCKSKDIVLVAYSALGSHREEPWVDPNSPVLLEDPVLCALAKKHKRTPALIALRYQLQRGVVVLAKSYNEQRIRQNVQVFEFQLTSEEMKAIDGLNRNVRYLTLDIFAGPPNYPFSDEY
Assay: Enzyme activity (NADPH) assay with s-tetralol, recombinant GST-AKR1C1
Type: biochemical
Design: made in house; host or cells: Escherichia coli JM109
Details: 2 μM compound; Supplementary Table 1; read-out: % inhibition
Readout label: inhibition at 2 µM (%)

Examples with their reported inhibition at 2 µM follow.
COc1cc(/C=C/C(=O)CC(=O)/C=C/c2ccc(O)c(OC)c2)ccc1O ... 48.5
COc1cc2c(=O)c(-c3ccc(O)cc3)coc2cc1O ... 29.5

a: O=c1c(O[C@@H]2O[C@H](CO)[C@@H](O)[C@H](O)[C@H]2O)c(-c2ccc(O)c(O)c2)oc2cc(O)cc(O)c12
b: Oc1cc(O)c2c(c1)O[C@H](c1ccc(O)c(O)c1)[C@H](O)C2 [Epicatechin]
Sorting by inhibition at 2 µM in descending order, would a or b appear first? Field: selected label. Fill in the label of the entry you choose. a

* * *

Biological target: AKR1C1 (Homo sapiens)
Assay: Enzyme activity (NADPH) assay with s-tetralol, recombinant GST-AKR1C1;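 further: GST-fused AKR1C1 expressed in E. coli and purified by glutathione affinity, control wells received DMSO instead of compound, duplicate samples from a single experiment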
Assay type: biochemical
Parameters: made in house; host or cells: Escherichia coli JM109
Conditions: 2 μM compound; Supplementary Table 1; read-out: % inhibition
Readout label: inhibition at 2 µM (%)

COc1cc2c(cc1CC=C(C)C)C(=O)C[C@@H](c1ccc(O)cc1)O2 [Bavachinin A] ... 24.6
O=c1c(-c2ccc(O)cc2)coc2cc(O)ccc12 [Daidzein] ... 34.8
CC(C)=CCOc1c2occc2cc2ccc(=O)oc12 [Imperatorin] ... 3.93
C[C@@H]1CC[C@@]2(OC1)O[C@H]1C[C@H]3[C@@H]4CC=C5C[C@@H](O[C@@H]6O[C@H](CO)[C@@H](O[C@@H]7O[C@@H](C)[C@H](O)[C@@H](O)[C@H]7O)[C@H](O)[C@H]6O[C@@H]6O[C@@H](C)[C@H](O)[C@@H](O)[C@H]6O)CC[C@]5(C)[C@H]4CC[C@]3(C)[C@H]1[C@@H]2C [Dioscin] ... -10.2
C[C@H]1O[C@@H](O[C@H]2CC[C@@]3(C)[C@@H](CC[C@]4(C)[C@@H]3C=C[C@]35OC[C@@]6(CCC(C)(C)C[C@H]63)[C@@H](O)C[C@]54C)[C@]2(C)CO)[C@H](O)[C@@H](O[C@@H]2O[C@H](CO)[C@@H](O)[C@H](O)[C@H]2O)[C@H]1O [Saikosaponin A] ... 5.53
CC(C)=CCOc1c2ccoc2cc2oc(=O)ccc12 [Isoimperatorin] ... 11.5

I: O=c1c(-c2ccc(O)cc2)coc2cc(O[C@@H]3O[C@H](CO)[C@@H](O)[C@H](O)[C@H]3O)cc(O)c12 [Genistin]
II: O=c1c2cc(O)c(O)cc2oc2cc(O)c([C@@H]3O[C@H](CO)[C@@H](O)[C@H](O)[C@H]3O)c(O)c12 [Mangiferin]
III: COc1ccc(-c2coc3cc(O)ccc3c2=O)cc1O [Calycosin]
IV: CC1(C)C=Cc2c(ccc3c2OC[C@@H](c2ccc(O)cc2O)C3)O1 [Glabridin]
V: COc1c(O)cc(O)c2c(=O)cc(-c3ccccc3)oc12 [Wogonin]
Exam item: list the entries in increasing order of inhibition at 2 µM. Please write the labels in the order that was asked for. IV, I, III, II, V
(IV: -11.9%, I: -5.64%, III: 4.82%, II: 22.7%, V: 77.7%)
